Assay: protein stability index of a GFP-peptide fusion (yeast GPS) (PSI 1-4); higher = more stable; sorted into four equal gates, so the index is relative within each strain
Settings: doa10∆
protein stability index reference
Reply with just the number.

Below are worked cases with known answers.
KLLFQELMAMNITPRLY [RPB2]: 1.27
QNAKLLANLIRDALRNI [RRP6]: 2.17
VETKLETKVDELRYQSH [DSN1]: 2.86

[Q] Could you tell me which protein stability index is on file for RGEIREIEQVCKQVHDK [MED7] ?
[A] 3.06

[Q] Could you tell me which protein stability index is on file for NIDSLKFNELVKLMKNI [BRR2] ?
[A] 1.37

[Q] Could you tell me which protein stability index is on file for ILLQHKEKLTVQDCRYS [POP1] ?
[A] 2.53

[Q] Could you tell me which protein stability index is on file for RLAKKPSMKKIKIEPSA [SIR3] ?
[A] 2.48

[Q] Could you tell me which protein stability index is on file for ETEFPPFREFLQVLIDQ [ECM29] ?
[A] 3.46

[Q] Could you tell me which protein stability index is on file for WKATYSNEFKCMSVITA [YGL100W/SEH1] ?
[A] 1.87

====

Experiment: protein stability index of a GFP-peptide fusion (yeast GPS) (PSI 1-4); higher = more stable; sorted into four equal gates, so the index is relative within each strain
Details: doa10∆
protein stability index reference
Reply with just the number.

Below are worked cases with known answers.
VSLVVNFQISKKMDDYI [PRP28]: 2.39
TLGNLIRAELLNDRKVL [RPB11]: 3.06
GISSTLVSANNDNNSPH [YLR018C/POM34]: 2.62
LSDRANKNQDAFEAELS [ARP9]: 3.28
YLKVSEEEIKKFDSRIR [PRP8]: 2.9

[Q] Could you tell me which protein stability index is on file for ELGEKKNEKLKFQETLL [ISW2] ?
[A] 2.86

[Q] Could you tell me which protein stability index is on file for AVDKVISGYKKFSSTSR [RPT1] ?
[A] 3.46

====

Assay: protein stability index of a GFP-peptide fusion (yeast GPS) (PSI 1-4); higher = more stable; sorted into four equal gates, so the index is relative within each strain
Settings: pdr5∆
measured.parameter: protein stability index

Below are worked cases with known answers.
PKLKEGALHFVQQSEKL [YIL149C/MLP2]: 2.33
HNQSPRNTYQSAMGKQA [RPB2]: 2.77
LNIDWSTTGDNGELDLS [MED2]: 2.48
QIIRLFYSKNRLLITGT [ISW2]: 1.56
QWRYLYDTQLKVSPEEL [ARP7]: 1.97

[Q] Could you tell me which protein stability index is on file for KIGEEDYGEEIKSGVAK [MTW1] ?
[A] 2.93

[Q] Could you tell me which protein stability index is on file for FTKYKPARSSSLRSNVV [YAR002W/NUP60] ?
[A] 2.44

[Q] Could you tell me which protein stability index is on file for TYDMVGGLTKQIKEIKE [RPT6] ?
[A] 2.52

[Q] Could you tell me which protein stability index is on file for IGQSEELSDKEIYTVED [ISW2] ?
[A] 3.46

====

protein stability index reference
Experiment: protein stability index of a GFP-peptide fusion (yeast GPS) (PSI 1-4); higher = more stable; sorted into four equal gates, so the index is relative within each strain
Details: pdr5∆
Reply with just the number.

LLSLISTTAALQSISSL [RPN7]: 1.95
EGVEYSFLHVDDKLAYI [POP8]: 2.1
HTQANEPNSAKKIRFLQ [RGR1]: 3.51

[Q] Could you tell me which protein stability index is on file for KHGAKKVAKRTKIKPFI [RPL27A] ?
[A] 2.97

[Q] Could you tell me which protein stability index is on file for TSQHSDSLTQNNNNAPI [YOR098C/NUP1] ?
[A] 2.95

[Q] Could you tell me which protein stability index is on file for GNVLLNATVVDSFKYEP [YLR335W/NUP2] ?
[A] 3.02

[Q] Could you tell me which protein stability index is on file for MSANGFAADGDALVKRF [PRE7] ?
[A] 3.4
